test: OD615 S. cerevisiae growth inhibition, permissive medium, pilot counter-assay, permissive growth control for S. cerevisiae lifespan shortening project (AID 705); details: OD615, 24 h, at 10 µM, active compounds read high
Could you please report measured growth inhibition for the items listed next?
# number only, unit % dropped from output

Given the entry COC(=O)C1=C(C)N(c2cc(Cl)cc(Cl)c2)C(=O)C1 , report its measured growth inhibition.
-2.8

Given the entry Cc1ccc(-n2ncc3c(NCCCN4CCOCC4)ncnc32)c(C)c1 , report its measured growth inhibition.
-6.19

Given the entry CC(=O)Oc1ccc(N2C(=O)C3C4C=CC(O4)C3C2=O)cc1 (stereo unspecified) , report its measured growth inhibition.
14.2

Given the entry CCCOc1ccc(N2C(=O)CC(N3CCN(c4ccccc4OC)CC3)C2=O)cc1 (stereo unspecified) , report its measured growth inhibition.
0.31

Given the entry CCN1C(=O)NC(c2cccnc2)C(C(=O)OC)=C1C (stereo unspecified) , report its measured growth inhibition.
-17.7

Given the entry COc1ccc(-c2cn3c(C)c(C(=O)N4CCN(c5ccccc5)CC4)sc3n2)cc1 , report its measured growth inhibition.
-0.58

----------
experiment: Restrictive medium S. cerevisiae growth inhibition, OD615, pilot screen of yeast lifespan reduction project, restrictive growth control (AID 706); details: OD615, 48 h, at 10 µM, active compounds read high;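 also: modified DeaD lifespan yeast strain shifted to restrictive glucose medium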
ASSAY_METRIC: growth inhibition (%)
# number only, unit % dropped from output

Given the entry Clc1ccc(OCc2nnc(-c3ccccc3Br)o2)c(Cl)c1 , report its measured growth inhibition.
-17

Given the entry Cn1c(=O)c2c(nc(OCc3ccccc3)n2C)n(C)c1=O , report its measured growth inhibition.
-0.39

Given the entry CCOc1ccc(S(=O)(=O)N(CC(=O)O)c2ccccc2)cc1 , report its measured growth inhibition.
-7.26

Given the entry O=C(CCCC(=O)Nc1cccnc1)Nc1cccnc1 , report its measured growth inhibition.
3.58

Given the entry CCOC(=O)c1cccc(NC(=O)CCS(=O)(=O)c2cccc3nsnc23)c1 , report its measured growth inhibition.
-22

Given the entry CCOC(=O)Cn1c(=O)oc2cc(S(=O)(=O)N(C)Cc3ccco3)ccc21 , report its measured growth inhibition.
-14

Given the entry O=C(N[C@@H](Cc1ccccc1)C(=O)O)c1cccnc1 , report its measured growth inhibition.
-10.1

Given the entry CCNC(=O)CN(c1ccc(CC)cc1)S(C)(=O)=O , report its measured growth inhibition.
-18

Given the entry Cc1cc(N2CCN(C(c3ccccc3)c3ccc(Cl)cc3)CC2)n2ncnc2n1 (stereo unspecified) , report its measured growth inhibition.
7.98

Given the entry O=C(c1ccc(CNc2c(N3CCOCC3)c(=O)c2=O)cc1)N1CC=C(c2ccccc2)CC1 , report its measured growth inhibition.
-7.31

Given the entry O=C(CCC1CC(=O)Nc2ccccc21)NCc1cccnc1 (stereo unspecified) , report its measured growth inhibition.
-2.23

----------
Could you please report measured viability for the items listed next?
test: growth suppression of beta-catenin knockout HCT116, pilot screen, human colon tumor cells (AID 823); details: CellTiter-Glo, 60 h, at 10 µM, active compounds read low;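 also: 0% = wells killed by 20 µM Hyamine and 100% = untreated DMSO cell wells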
Results filed as inconclusive are left out.
# number only, unit % dropped from output

Given the entry Cc1cccc(-c2nc(CS(=O)CC(=O)NC3CCCC3)c(C)o2)c1 (stereo unspecified) , report its measured viability.
94.5

Given the entry COC(=O)c1ccc2c(=O)n3c(nc2c1)SCC(c1ccccc1)=N3 , report its measured viability.
95.1

Given the entry O=C(CCN1C(=O)c2ccccc2C1=O)OCn1nnc2ccccc2c1=O , report its measured viability.
107

Given the entry COC(=O)c1cc2c(s1)-c1ccccc1OC2 , report its measured viability.
101

Given the entry COc1ccc(NC(=O)CN(c2cc(C)cc(C)c2)S(=O)(=O)c2c(C)n[nH]c2C)cc1 , report its measured viability.
102

Given the entry Cc1ccccc1NC(=O)CSc1[nH]c(=O)cc(C)c1C#N , report its measured viability.
108

----------
assay: growth suppression of beta-catenin knockout HCT116, pilot screen, human colon tumor cells (AID 823); settings: CellTiter-Glo, 60 h, at 10 µM, active compounds read low;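 also: 0% = wells killed by 20 µM Hyamine and 100% = untreated DMSO cell wells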
Records with an inconclusive call do not appear.
ASSAY_METRIC: viability (%)
# number only, unit % dropped from output

Given the entry Cc1ccc(-c2nn3c(C)nnc3s2)cc1NC(=O)c1ccc(OC(C)C)cc1 , report its measured viability.
79.4

Given the entry CC1(C)CC(=O)C2=C(C1)Nc1ccccc1NC2c1nc2ccccc2[nH]1 (stereo unspecified) , report its measured viability.
100

Given the entry CCC(=O)NC(c1ccccc1)c1nc2ccccc2[nH]1 (stereo unspecified) , report its measured viability.
100

Given the entry Cc1cccc(C)c1N1C(=O)c2ccccc2C1=O , report its measured viability.
105

Given the entry O=C(COc1ccc(S(=O)(=O)NC2CCCCC2)cc1)Nc1ccc2c(c1)OCCO2 , report its measured viability.
84

Given the entry CCOC(=O)C1CCCN(c2c(NCCCN3CCCC(C)C3)c(=O)c2=O)C1 (stereo unspecified) , report its measured viability.
99.1

Given the entry C=CCc1c(C)nc(SCc2nc3ccccc3c(=O)[nH]2)[nH]c1=O , report its measured viability.
94.2

Given the entry COC(=O)CCSCC(=O)Nc1nnc(C)s1 , report its measured viability.
108

Given the entry Cc1cc(Nc2cccc(F)c2)n2ncnc2n1 , report its measured viability.
101

Given the entry Cc1noc(C)c1S(=O)(=O)N(CC(=O)Nc1ccc2c(c1)OCO2)c1ccc(C(C)C)cc1 , report its measured viability.
96.4

Given the entry COc1ccccc1N1CCN(C(=O)c2ccc(Br)s2)CC1 , report its measured viability.
87

----------
assay: inhibitors of the yeast RAM network, pilot screen, dse1pr::URA3 reporter, 5-FOA selection (AID 869);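 also: 0% = DMSO wells with no growth and 100% = 10 µM 1-NA-PP1 with full growth; RAM network block rescues cells from 5-FOA so hits raise OD615 growth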; conditions: S. cerevisiae dse1pr::URA3 5-FOA growth, OD615, 2 d; at 10 µM; active compounds read high; strain carries analog-sensitive mutant Cbk1 kinase
ASSAY_METRIC: inhibition (%)
# number only, unit % dropped from output

Given the entry COCCN1C(=O)C(CC(=O)Nc2ccc(C(=O)O)cc2)SC1=Nc1ccccc1 (stereo not given) , report its measured inhibition.
2.39

Given the entry Cc1ccc(S(=O)(=O)N2C(=S)SCC2(C)C)cc1 , report its measured inhibition.
-1.13

Given the entry Cc1ccc(C2/C(=C(/O)c3ccccc3)C(=O)C(=O)N2CCN2CCOCC2)o1 (stereo not given) , report its measured inhibition.
0.095

Given the entry CC(C)C(=O)N1CCN(c2ccccc2N)CC1 , report its measured inhibition.
1.55

Given the entry O=C1CCC(=O)N1c1cccc(-c2nc3ccccc3o2)c1 , report its measured inhibition.
-0.245

Given the entry O=C(CCCc1c[nH]c2ccccc12)N1CCN(c2ccc(N3CCOCC3)nn2)CC1 , report its measured inhibition.
0.485

Given the entry O=C(Nc1ccon1)c1cccc(C(F)(F)F)c1 , report its measured inhibition.
0.075

Given the entry CCC(C)NC(=O)c1ccccc1NC(=O)CN1C(=O)c2ccccc2S1(=O)=O (stereo not given) , report its measured inhibition.
1.33

Given the entry COc1cc(O)c(NC(C)=O)c2nonc12 , report its measured inhibition.
-0.845

Given the entry COc1ccccc1CNS(=O)(=O)c1ccc2c(c1)oc(=O)n2C , report its measured inhibition.
0.795

Given the entry COc1ccc(CN(C)C2CCCCC2)cc1 , report its measured inhibition.
1.12

Given the entry CCc1ccc(C(=O)NCc2cccs2)s1 , report its measured inhibition.
0.715

Given the entry COc1ccc(Cn2c(=O)[nH]c3cc(C(=O)NCCCN4CCCCC4)ccc3c2=O)cc1 , report its measured inhibition.
0.53

Given the entry Cc1ccc(-c2cc3c(nn2)-c2ccccc2C3=O)cc1 , report its measured inhibition.
4.56

Given the entry Cc1[nH]c2ccccc2c1CCC(N)=O , report its measured inhibition.
1.92

Given the entry CC(=O)NCCn1c(C)cc2ccccc21 , report its measured inhibition.
0.97

Given the entry N#CC1=C(O)CCCn2c1nc1ccccc1c2=O , report its measured inhibition.
2.41

Given the entry Nc1[nH]nc2nc(N3CCOCC3)nc(-c3ccccc3)c12 , report its measured inhibition.
2.38

Given the entry O=C(Cn1nnc(-c2ccccc2F)n1)Nc1cccc2ncccc12 , report its measured inhibition.
1.36

Given the entry CNC(=O)c1nnc(Cc2ccc(F)cc2)o1 , report its measured inhibition.
0.195

Given the entry COc1ccc(N2CSC3=C(C#N)C(c4cc(OC)ccc4OC)CC(=O)N3C2)c(OC)c1 (stereo not given) , report its measured inhibition.
0.54

Given the entry CCN(CCNS(=O)(=O)c1ccc2c(c1)oc(=O)n2C)c1ccccc1 , report its measured inhibition.
4.3

Given the entry O=C(NCc1ccccc1Cl)c1cnc2n(c1=O)CCS2 , report its measured inhibition.
0.995

Given the entry CCCCC(=O)Nc1nc2c(OC)ccc(OC)c2s1 , report its measured inhibition.
0.87

Given the entry Cc1cccc(NCc2nc(-c3ccccc3)no2)c1 , report its measured inhibition.
2.41

----------
assay: inhibitors of the yeast RAM network, pilot screen, dse1pr::URA3 reporter, 5-FOA selection (AID 869);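 also: 0% = DMSO wells with no growth and 100% = 10 µM 1-NA-PP1 with full growth; RAM network block rescues cells from 5-FOA so hits raise OD615 growth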; conditions: S. cerevisiae dse1pr::URA3 5-FOA growth, OD615, 2 d; at 10 µM; active compounds read high; strain carries analog-sensitive mutant Cbk1 kinase
ASSAY_METRIC: inhibition (%)
# number only, unit % dropped from output

Given the entry COC(=O)c1cc(=O)nc2scc(C)n12 , report its measured inhibition.
0.885

Given the entry COC(=O)CSc1nc2ccccc2o1 , report its measured inhibition.
1.3

Given the entry CC(=O)c1c(C)[nH]c(C(=O)N2c3ccccc3CC2C)c1C (configuration not stated) , report its measured inhibition.
0.755

Given the entry CCC(=O)N1CC2(C)CN(C(=O)CC)CC(C)(C1)C2 , report its measured inhibition.
1.59

Given the entry CCOc1cccc(=O)c2c(C)n(CC3CCCO3)c(C)c12 (configuration not stated) , report its measured inhibition.
0.73

Given the entry CCC(=O)N1c2ccccc2-c2nnc(SC)nc2OC1c1ccc(N(C)C)cc1 (configuration not stated) , report its measured inhibition.
3.08

Given the entry O=C(O)CCSc1nnc(-c2ccccc2)n1-c1ccccc1 , report its measured inhibition.
1.48

Given the entry Fc1cc(Br)ccc1Nc1nc2ccccc2n2nnnc12 , report its measured inhibition.
1.94

Given the entry N#CC1=C(N)Oc2c(sc3ccccc23)C1c1ccco1 (configuration not stated) , report its measured inhibition.
1.22

Given the entry CCOCCn1c(N(C)Cc2ccccc2)nc2c1c(=O)[nH]c(=O)n2C , report its measured inhibition.
0.985

Given the entry CCOC(=O)C1=C(C)NC(C)=C(C(=O)OCC)C1c1nc2ccccc2[nH]1 , report its measured inhibition.
0.96

Given the entry COc1ccc(OC)c(NC(=O)c2ccc(NC(C)=O)cc2)c1 , report its measured inhibition.
1.2

The origin of these recorded values is PubChem BioAssay.
